Target: T1, MAGE-A4 peptide on HLA-A*02:01 (human)
T1 peptide: KVLEHVVRV
Assay: multimer staining
endpoint: binding result

PN41617 (TCR, V domains shown, stained with anti-mouse TCR constant region H57-597; full-length chains on transfected CHO cells; also called TCR No. 20) V domain 1: AQTVTQSQPEMSVQEAETVTLSCTYDTSESDYYLFWYKQPPSRQMILVIRQEAYKQQNATENRFSVNFQKAAKSFSLKISDSQLGDAAMYFCAYRSASGNQFYFGTGTSLTVIP V domain 2: DVKVTQSSRYLVKRTGEKVFLECVQDMDHENMFWYRQDPGLGLRLIYFSYDVKMKEKGDIPEGYSVSREKKERFSLILESASTNQTSMYLCASSLWGMNTEAFFGQGTRLTVV :: recognises
PN41557 (TCR, V domains shown, stained with anti-mouse TCR constant region H57-597; full-length chains on transfected CHO cells; also called TCR No. 11) V domain 1: EDQVTQSPEALRLQEGESSSLNCSYTVSGLRGLFWYRQDPGKGPEFLFTLYSAGEEKEKERLKATLTKKESFLHITAPKPEDSATYLCAVQAVTGGGNKLTFGTGTQLKVEL V domain 2: GAVVSQHPSWVICKSGTSVKIECRSLDFQATTMFWYRQFPKQSLMLMATSNEGSKATYEQGVEKDKFLINHASLTLSTLTVTSAHPEDSSFYICSASWDRDYGYTFGSGTRLTVV :: recognises
PN41513 (TCR, V domains shown, stained with anti-mouse TCR constant region H57-597; full-length chains on transfected CHO cells; also called TCR No. 3) V domain 1: AQTVTQSQPEMSVQEAETVTLSCTYDTSESDYYLFWYKQPPSRQMILVIRQEAYKQQNATENRFSVNFQKAAKSFSLKISDSQLGDAAMYFCAYRSAPGNQFYFGTGTSLTVIP V domain 2: DVKVTQSSRYLVKRTGEKVFLECVQDMDHENMFWYRQDPGLGLRLIYFSYDVKMKEKGDIPEGYSVSREKKERFSLILESASTNQTSMYLCASSLFATNEKLFFGSGTQLSVL :: recognises
